Source: patent US20260250403A1

system: T1, hCD40-His (Human CD40 protein having a His-Tag, Beijing ACROBiosystems Co. Ltd., Cat #: CD0-H5228) (human, UniProt P25942 21-193)
T1 construct: Bought protein; not shown: His tag
T1 sequence (P25942 21-193 limits assumed): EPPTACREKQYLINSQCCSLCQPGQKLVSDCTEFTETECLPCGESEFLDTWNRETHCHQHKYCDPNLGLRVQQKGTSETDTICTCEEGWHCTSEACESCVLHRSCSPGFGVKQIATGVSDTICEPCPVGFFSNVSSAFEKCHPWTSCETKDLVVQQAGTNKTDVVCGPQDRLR
run_description: SPR, Biacore 8K, Protein A chip, CD40-His as analyte, 1:1 Langmuir fit
Let's look at some binders and their measured kon.
Write the answer as a number in M⁻¹ s⁻¹, unit excluded.

Example binders with recorded kon:
6A4-IgG4-FLAA (antibody, V domains shown, Rest: human IgG4 constant regions with FLAA mutations (F234A and L235A, EU numbering)) VH: QVQLVQSGGGLVQPGGSLRLSCAASGFTFSNYVMSWVRQAPGKGLEWVSTIRGSGISTYYTDSVKGRFTTSRDNPKNTLFLQMSSLRAEDTAVYYCAKGIVGATTPFDYWGQGTLVTVSS VL: EIVLTQSPATLSLSPGERATLSCRASQSVRSFLAWYQQKPGQAPRLLIYETSNRATGIPARFSGSGSGTDFTLTISSLEPEDFAVYYCQQRSDWPPTFGQGTKVEIKR :: 309000
2F8-IgG4-FLAA (antibody, V domains shown, Rest: human IgG4 constant regions with FLAA mutations (F234A and L235A, EU numbering)) VH: EVQLVQSGGGVVQPGRSLRLSCAASGFSFSSYAMHWVRQVPGKGLEWVSVISYDGDNKYHAESVKGRFTISRDNSKNILYLQMNSLRPEDTAVYYCARRGTVTNYYSYSGLDVWGQGTTVTVSS VL: DIQLTQSPLSLPVTPGEPASISCRSSQSLLYSNGKNYLDWYLQKPGQSPQLLIYLASNRASGVPDRFSGSGSGTDFTLKISRVEAEDVGVYFCMQALQTPRTFGQGTKVEIKR :: 654000
Bleselumab analog (antibody, human IgG4, V domains shown) VH: QLQLQESGPGLLKPSETLSLTCTVSGGSISSPGYYGGWIRQPPGKGLEWIGSIYKSGSTYHNPSLKSRVTISVDTSKNQFSLKLSSVTAADTAVYYCTRPVVRYFGWFDPWGQGTLVTVSS VL: AIQLTQSPSSLSASVGDRVTITCRASQGISSALAWYQQKPGKAPKLLIYDASNLESGVPSRFSGSGSGTDFTLTISSLQPEDFATYYCQQFNSYPTFGQGTKVEIKR :: 429000

Suppose we examine the binder 12B5-IgG4-FLAA (antibody, V domains shown, Rest: human IgG4 constant regions with FLAA mutations (F234A and L235A, EU numbering); copies: 2 + 2) VH: QVQLVQSGPGLVKPSETLSLTCTVSGGSISYYYWSWIRQPPGKGLEWIGHISYSGSTNYNPSLKSRVTISEDTSKKQFSLKLDSVTAADTAVYYCAGGIVGARRGFDFWGQGTLVTVSS VL: EIVMTQSPATLSLSPGERATLSCRASQSVSNNLAWYQQKPGQAPRLLIYDASNRAADIPARFSGSGSGTDFTLTISSLEPEDFAVYYCQQRNNWPPTFGQGTKVEIKR ; what kon value has been reported?
529000
